- procedure-text: AUC (0 to infinity) in Swiss mouse at 100 mg/kg, po by LC-MS/MS analysis
- Type: ADME, organism-based
- Parameters: time infinity, dose 100 mg/kg, route oral
- experimental-context: plasma
Entries and their AUC(0-inf)
measured-attribute: AUC(0-inf) (µg·h/mL)

* O=C(NCCO[N+](=O)[O-])c1ccncc1 | 160
* O=C(NCCO[N+](=O)[O-])c1ccccn1 | 10.1
* O=C(NCCO[N+](=O)[O-])c1cccnc1 | 123

###

- procedure-text: Half life in Swiss mouse at 100 mg/kg, po by LC-MS/MS analysis
- Type: ADME, organism-based
- Set-up: dose 100 mg/kg, route oral
- experimental-context: in vivo
Entries and their half-life
measured-attribute: half-life (h)

- O=C(NCCO[N+](=O)[O-])c1cccnc1: 1.5
- O=C(NCCO[N+](=O)[O-])c1ccccn1: 1.1
- O=C(NCCO[N+](=O)[O-])c1ccncc1: 0.76
